# System: HS 578T breast
# MEASUREMENT PROTOCOL: NCI-60 one-dose screen, 48 h (100 = growth as untreated, 0 = no growth, -100 = all killed)
# CONDITION DETAILS: 10 µM unless noted
# Method: Growth inhibition of the HS 578T human tumor cell line is measured as a screen for anti-cancer activity. Cells are grown in 96 well plates and exposed to the test compound for 48 hours. Compounds are tested at a single concentration, which is 10^-5 M for most compounds. The reported endpoint is percent growth (GI% or GIPRCNT), where numbers from 0 - 100% represent growth inhibition, and numbers from -100% - 0 represent cell death. For example, a value of 40 represents 60% growth inhibition. […]
The panel holds about 83,000 compounds, 20% with a hit somewhere; the sample as a whole holds those more often.
Returns the class for an entry based on its growth. Class ranges: bottom: < 30%; middle: ≥ 30% and < 70%; top: ≥ 70%

Answered examples (8):
O=C(CN1C(=O)/C(=C/c2ccccc2F)SC1=S)N1CCOCC1	top
Cn1cc(-c2cc(N)n3nc(-c4cn(C)c5ccc(Cl)cc45)cc3n2)c2ccccc21	top
C=C1CCC2C3(C)COC(c4ccc(F)cc4)OC3CCC2(C)C1C/C=C1/C(=O)OCC1O (stereo not given)	bottom
CCOC(=O)c1ccc(Nc2nc(NN)nc(-c3ccc(F)cc3)c2C#N)cc1	top
COc1c(F)ccc(C(=O)Nc2ccc3nc(NC(=O)C4CCCN(S(=O)(=O)c5cccc(C(F)(F)F)c5)C4)sc3c2)c1F (stereo not given)	middle
Cn1cc(-c2cc(N)n3nc(-c4cn(C)c5ncc(Br)cc45)cc3n2)c2cc(Br)cnc21	middle
COc1ccc(-c2ccnc(SCc3cc4ccccc4[nH]c3=O)n2)cc1OC	bottom
CC(=O)Nc1cccc(-c2nc3cc(-c4ccc(O)cc4)ccc3n2C)c1	middle

Q. Which category fits this record: Cc1cc2c(cc1Cl)C(=O)/C(=C/c1ccccc1)O2
A. bottom

Q. Which category fits this record: COc1ccc(-c2nc3ccc(C(=O)NN4C(=O)c5ccc([N+](=O)[O-])cc5C4=O)cc3[nH]2)cc1
A. top

Q. Any idea which band O=C1NC(=O)/C(=C/c2ccccc2OCc2cc3ccccc3nc2Cl)S1 is in?
A. bottom

Q. Dear colleague, I would appreciate it if you could identify the bin for C=CC[N+](C)(C)CCn1c2ccccc2c2nc3cc(C)c(C)cc3nc21 and reply at your convenience.
A. middle

Q. Classify this compound: CN(C)CCOc1ccc(C(=O)C2[C@H](c3ccc(Cl)cc3)[C@@H](c3ccccc3)NC23C(=O)Nc2ccc(Br)cc23)cc1 (stereo not given in full)
A. middle

Q. GET /class?item= COc1ccc2[nH]cc(-c3nnc(N)nc3-c3cn(C)c4ncc(Br)cc34)c2c1
A. middle

Q. Category of Cc1cc(=O)oc2cc(OCCCOc3ccc(/C=C/C(=O)Nc4ccccc4N)cc3)ccc12 , please.
A. middle

Q. Exercise: read the entry COc1cc2oc(-c3cccc(C(=O)Nc4ccc(Cl)cc4)c3)cc(=O)c2c(OCCNC(=O)[C@H](CO)NC(=O)OC(C)(C)C)c1OC and state which class it falls under.
A. bottom

Q. Class? Entry: COc1cc2c(c(OC)c1OC)C(=O)CC(c1cccc(NC(=O)c3cc(NC(=O)[C@H](C)N)ccc3Cl)c1)O2 (stereo not given in full)
A. middle

Q. Sort into band: COc1cc(C2CC(c3cc(OC)c(OC)c(OC)c3)=NN2C(C)=O)ccc1OCc1ccccc1 (stereo not given)
A. middle

Q. Category lookup for the compound CN(C)CCCNC(=O)c1cc(NC(=O)c2cc(NC(=O)c3ccc(/C=C/c4ccccc4)cc3)cn2C)cn1C
A. top

Q. Please classify: CCN1C(=O)/C(=N\N=C(/C)c2ccc3c(c2)Nc2ccccc2S3)c2cc(Cl)ccc21
A. top

Q. Which category fits this record: Cc1sc2c(c1C)C(c1ccc(Cl)cc1)=N[C@@H](CC(=O)NCCCCCNC(=O)COc1ccc(C3CCC(=O)NC3=O)cc1)c1nnc(C)n1-2 (stereo not given in full)
A. bottom

Q. Kindly identify the class of COc1cc(C2CC(c3ccc(S(=O)(=O)NCCNc4nc(Nc5ccc(F)cc5)nc(N(C)C)n4)cc3)=Nc3c(N)nc(N)nc3N2)cc(OC)c1OC (stereo not given) .
A. top

Q. Where would O=C1CC(Sc2n[nH]c(-c3ccncc3)n2)C(=O)N1c1ccc(Br)cc1 (stereo not given) land among the classes by reported growth?
A. top

Q. Lab note: sort COc1cccc(/C=C/C(=O)c2ccc(OC)c(S(N)(=O)=O)c2)c1 into the matching growth band.
A. top

Q. Class (by measured growth) for Cn1cc(-c2cc(N)n3nc(-c4c[nH]c5ccccc45)cc3n2)c2cc(Br)cnc21
A. bottom

Q. Please indicate the class for COc1ccc(Cc2nn(CC(=O)N/N=C/c3ccc(F)cc3)c(=O)c3c(C)noc23)cc1 based on its growth.
A. bottom

Q. Hi there! Could you help me figure out the category for NS(=O)(=O)c1ccc(CCNC(=O)CSc2ccc(-c3ccc(Br)cc3)nn2)cc1 please?
A. top

Q. Into which category would you place CN(C)c1nc(NCCNS(=O)(=O)c2ccc(C3=Nc4c(N)nc(N)nc4NC(c4ccc(F)cc4)C3)cc2)nc(Nc2ccc(F)cc2)n1 (stereo not given) ?
A. middle
